# TESTED ON: NADPH oxidase 5 (Homo sapiens) (UniProt Q96PH1)
# Sequence (Q96PH1 whole entry, looked up): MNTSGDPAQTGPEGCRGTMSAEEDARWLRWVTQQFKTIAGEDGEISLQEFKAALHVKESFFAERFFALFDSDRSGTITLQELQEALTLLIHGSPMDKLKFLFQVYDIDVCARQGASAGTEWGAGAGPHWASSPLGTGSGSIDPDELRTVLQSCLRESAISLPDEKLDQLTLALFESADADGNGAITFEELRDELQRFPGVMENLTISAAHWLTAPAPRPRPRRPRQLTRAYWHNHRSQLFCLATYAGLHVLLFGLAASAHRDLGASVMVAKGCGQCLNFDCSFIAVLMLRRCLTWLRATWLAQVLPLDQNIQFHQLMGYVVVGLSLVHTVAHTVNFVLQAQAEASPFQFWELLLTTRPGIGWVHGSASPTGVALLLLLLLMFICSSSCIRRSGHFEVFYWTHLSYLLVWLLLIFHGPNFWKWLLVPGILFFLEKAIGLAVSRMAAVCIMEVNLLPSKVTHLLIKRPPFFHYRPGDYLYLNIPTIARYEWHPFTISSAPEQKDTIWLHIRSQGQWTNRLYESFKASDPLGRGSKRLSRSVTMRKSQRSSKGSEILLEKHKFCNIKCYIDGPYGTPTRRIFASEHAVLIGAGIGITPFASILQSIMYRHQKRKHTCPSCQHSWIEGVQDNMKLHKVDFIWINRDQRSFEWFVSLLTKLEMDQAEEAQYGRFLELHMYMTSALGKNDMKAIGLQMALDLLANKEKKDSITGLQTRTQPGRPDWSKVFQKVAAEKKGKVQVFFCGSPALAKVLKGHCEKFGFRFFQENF
# TEST DESCRIPTION: compounds shifting NOX5 Amplex Red fluorescence – cell-based, HEK293-NOX5, NOX inhibitor project, primary screen (AID 1161)
# CONDITION DESCRIPTION: HEK293-NOX5, ionomycin, 45 min, higher = more signal
Label scheme for z-score: lower than -1 is Not satisfied, -1 and above is Satisfied.

Would you please look over these solved cases?
>>> class_name("COc1ccc([Si](C)(C)[C@@H]2[C@@H](CC(=O)N(CCO)Cc3ccccc3)O[C@]3(C(=O)N(Cc4ccc(N5C(=O)c6cccc7cccc5c67)cc4)c4ccccc43)[C@H]2C)cc1")
"Satisfied"
>>> class_name("COc1cc(C(O)C2C=CC3C(=O)N(c4ccccc4)C(=O)C3N2Nc2ccccc2)cc(OC)c1OC (stereo unspecified)")
"Not satisfied"
>>> class_name("COc1ccc([Si](C)(C)[C@@H]2[C@@H](CC(=O)N3CCC[C@H]3CO)O[C@]3(C(=O)N(Cc4cccc(N5CCCCC5=O)c4)c4ccccc43)[C@H]2C)cc1")
"Satisfied"
>>> class_name("CC(C)N1C(=O)C[C@@](C(=O)NCCN2CCOCC2)(c2ccc([N+](=O)[O-])cc2)[C@H]1c1ccc(CO)cc1")
"Not satisfied"
>>> class_name("C=CCC(OC(C)=O)[C@@H]1[C@@H](N(Cc2ccc(-c3cccc(C(F)(F)F)c3)o2)C(=O)c2ccc(-c3ccccc3)cc2)c2cc(OCCCO)ccc2N1C(=O)c1ccc2ccccc2c1 (stereo partly specified)")
"Not satisfied"

Here is the next item to consider.
Does z-score meet or surpass -1 for CC(C)C[C@@H]1NC(=O)[C@@H]2C[C@H](C(=O)NCCCCCCNC(=O)CS)[C@H](c3cccc(OCCO)c3)N2C1=O ?
Satisfied
